Every entry's value here was drawn from the supplement of paper PMC7125110.

B1: glmS ribozyme (parent)
chain: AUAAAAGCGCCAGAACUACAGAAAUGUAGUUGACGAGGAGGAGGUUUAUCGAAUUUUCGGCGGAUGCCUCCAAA

Variants of: B1
assay: self-cleavage kobs at 2500 uM GlcN6P; higher = faster cleavage; RNA array
protocol.conditions: with glucosamine-6-phosphate
Fewer inactive variants are shown than the library holds.
measure.name: self-cleavage kobs at 2500 uM GlcN6P (s⁻¹)
Write the number in s⁻¹ without appending the unit.

Query :: Using known records, supply self-cleavage kobs at 2500 uM GlcN6P for A15G C58U C70U
Result :: 3.63e-05

Query :: Using known records, supply self-cleavage kobs at 2500 uM GlcN6P for G32C C50U U69A
Result :: 0.000245

Query :: Using known records, supply self-cleavage kobs at 2500 uM GlcN6P for A15G U45C U65G C67U
Result :: 0.000125

Query :: Using known records, supply self-cleavage kobs at 2500 uM GlcN6P for A12C U65G U69C
Result :: 0.000703
